Test system: TO-3-N3-2 (biotin conjugate)
Assay: pull-down binding Z-score (relative to library population); higher = stronger binding
Conditions: RNA library: Library-2

| monomer.sequence | pull-down binding Z-score |
| --- | --- |
| UGGGUCAAGGAGCCCA [hsa-mir-4530] | -0.211 |
| UAGUAGCUGGUGGUAUUGUAGCUAUCGUAGUAACAUGCCUUGCCUACUA [DMSMaPseq_invitro_SARS-CoV-2_Motif_172] | -0.39 |
| UCACUCACUGAGUGA [IAV_invivo_NP_5_Motif_1+IAV_invivo_NP_5_Motif_1] | -0.357 |
| GAGUAUUAGGUUUGAAAACCCUUGCUACUC [SHAPE_invivo_SARS-CoV-2_Motif_136] | -0.359 |
| GAAGCACUGGUUAUGAUUUGCAUC [hsa-mir-3126] | 0.159 |
| UAAUAUGUAAUAUAAAUGUAUUG [hsa-mir-450a-2] | -0.134 |
| CAGAGACUUGAAGAUGUCUUUG [IAV_invivo_M1_M2_7_Motif_2+IAV_invivo_M1_M2_7_Motif_2] | -0.362 |
| GGGAGGUAAGAAGUCUCUGACUCCU [hsa-mir-5193] | -0.261 |
| AGCCACUGCGGUCGACCAUGACCUGGA [hsa-mir-619] | 0.0618 |

---

Tested on: TO-N3-2 (biotin conjugate)
Test: pull-down binding Z-score (relative to library population); higher = stronger binding
Conditions: RNA library: Library-2
# pull-down binding Z-score annotations

| monomer.sequence | pull-down binding Z-score |
| --- | --- |
| AUCUGAUGUUGAAUACUCUUUAAGU [hsa-mir-1245a] | -0.685 |
| UCAGAUAUUUAAGUUAACAGUAUUUGA [hsa-mir-580] | -1.5 |
| GGCCGCAAAUUGCACAAUUUGCCCCC [SHAPE_invivo_SARS-CoV-2_Motif_557] | -0.213 |
| GAUUUUGGGACUACCAACUC | -0.581 |
| GGUGGGUGCC [hsa-mir-1268b] | -0.075 |
| UAUUUCAUAACAGAUGCGCAAACAGGUUCAUCUAAGUGUGUGUGUUCUGUUAUUGAUUUA | -0.209 |
| GUUUCUGCCUUUCCAACAAUUUGGCAGAGAC | -0.994 |
| UGUCAUUACUUUUAAUGGUA [hsa-mir-548h-1] | -1.24 |
| AGGUAGUGUGAUUACCCAACCUACU [hsa-mir-93] | 0.272 |
| UGCCCUAGCGGCU [hsa-mir-4268] | -0.238 |
| AGGCUUGGCACUUGAGGGAAAGCCU [hsa-mir-8059] | 0.469 |
| GUUCGGGGGUUCCGACGGCGAC [hsa-mir-6790] | 1.76 |
| CUCGGCCAUCCUCCGUCUGCCCAG [hsa-mir-935] | 1.16 |
| UGGUGGAGAUGGAGAGCCCUGAGCCUCCA [hsa-mir-6777] | 1.17 |
| UGGGUUAAGCCGAGCUGG [hsa-mir-4507] | 1.05 |
| UGGUGGUGAAUUCAUGAGUCGCCA [hsa-mir-3115] | -0.62 |
| GGGUGGGUGGGUGGGUGGGUGGGU [G4_r(GGGU)6] | 5.53 |
| AUGCACCCAUAUUUUAAUAUCAAACUAUGACAAAUU [hsa-mir-3974] | -0.358 |
| CUGCUUUUGGCUUAGUUGCAG | -0.231 |
| AUGGUUAUCUUACUUCUUCUUCUAAAACACCUGAAGAACAUUUUAUUGAAACCAU | -1.01 |
| GCAGCUAGUAUUCUCACUCCAGUUGC [hsa-mir-153-1] | 0.592 |
| ACUAAAAUAAAACCUCAUAAUUCACAUGAAGGUAAAACAUUUUAUGUUUUACCUAAUGAUGACACUCUACGUGUUGAGGCUUUUGAGU [DMSMaPseq_invitro_SARS-CoV-2_Multi_18_ComplexLevel_1] | -1.02 |
| CGUGGUAUUCUUGCUAGUUACACUAGCCAUCCUUACUGCG | -0.427 |
| GGCCACCCAGGGAGUAAGUAGCC [hsa-mir-4480] | 1.42 |
| AACGGGGCGGGCCUUGGGCGGGGUAA [G4_2A2_VEGF-Pu22-mt] | 5.19 |
| AGCUUCUUUAUAAGAAGAGGAAACU [hsa-mir-3923] | -0.5 |
| CGCGGGCGGGUCCCAGGCUGGGCCCCUCGGAGGCCGGGUGCUCACUGCCCCGUCCCGG [hsa-mir-6789] | 4.13 |
| GUUUGGCAGGACAGUUUCCAAGC [hsa-mir-6779] | 0.15 |
| AAAGUGCUUUUGUUAAUUUAAAACAAUUACCAUUUU [SHAPE_invivo_SARS-CoV-2_Motif_363] | -1.63 |
| ACCAAUGUGCUAUGAGGCCCAAUUUCACUAUUAAGGGUUCAUUCCUUAAUGGUUCAUGUGGUAGUGUUGGU [SHAPE_invivo_SARS-CoV-2_Multi_27_ComplexLevel_1] | -0.569 |
| CUGGGAGGUGUGAUCCCGUGCUUCCUGG [hsa-mir-3689b] | 0.409 |
| CUCAGAGUAGAAAUUUACAAGAAUUUAAACCCAGGAG [DMSMaPseq_invitro_SARS-CoV-2_Motif_359] | -0.531 |
| UUGAUGUCAGGUUAUCCCCAAGCAUAACCUCAC [hsa-mir-4639] | -0.0627 |
| UCCAGGGCUCCUGACACCUGGA [hsa-mir-6861] | -0.248 |
| CGCGCCCGGCCUAACUUUUAAGAAACGUCGGCCCGGGAGCG [hsa-mir-5095] | 1.15 |
| CCAUAAUGAAUCUGG [DMSMaPseq_invitro_SARS-CoV-2_Motif_27] | -0.529 |
| GCAGAAAUCACUCCAGGAGCAACUGA [hsa-mir-936] | 0.712 |
| GGUGCUCCCAAGAGGGAAGCU [IAV_invivo_NP_5_Motif_18+IAV_invivo_NP_5_Motif_18] | 0.775 |
| UCCUCCACAAAUGCGUGUGGAGGA [hsa-mir-4633] | -1.6 |
| ACGUCUGGCCGCGUGCGCAUGU [hsa-mir-3175] | 1.89 |
| GGGUUUACAAACAAUUUGAUACUUAUAACCU [DMSMaPseq_invitro_SARS-CoV-2_Motif_347] | -1.11 |

---

Test system: G-clamp-N3 (biotin conjugate)
Assay: pull-down binding Z-score (relative to library population); higher = stronger binding
Settings: RNA library: Library-1 (pre-miRNA loops + repeats)
Short version: pull-down binding Z-score at least -0.2 is y, less is n.

| monomer.sequence | category |
| --- | --- |
| GUUUUUUAAGAGGAAGGGAGACCUAAGCUAGCA [hsa-mir-4481] | y |
| GAGCCCUGAGGGGCUC [hsa-mir-6087] | y |
| GAAGAUUCUGAAAAUCACUAACU [hsa-mir-6878] | n |
| UUGUUACAUUUUAGGAUUGCUUGCCCCUUGCUCCAAUGGUGCAGGCAGAAGAAAUGCAAACAA [hsa-mir-3973] | n |
| UCCCUUCCUGGACACACAGGAGGAGA [hsa-mir-5680] | n |
| CCGGGCGCUGCUCUGACCCCUCGU [hsa-mir-187] | y |
| GGCGCUUCUCCUUCUGAACAGAGCGCU [hsa-mir-1251] | n |
| GCAGCAGGCACCUGCUUCC [hsa-mir-6868] | n |
| AGGCCUGAGUCUCUCUGCUGCAGAUGGGCUC [hsa-mir-422a] | n |
| UCCAGACGGAGAUGCGA [hsa-mir-611] | n |
| CUGCAGUGAGUAGGUCUGCCU [hsa-mir-4254] | n |
| GCAGGGACCCCUCCAAGUUGGGGACGGCAGC [hsa-mir-6858] | y |
| GGAGCUCAGCACCUGCCUGCCACCCACGCAGACCAGCCCCUGCUCUGUUCCCACAG [hsa-mir-4648] | n |
| CCCGAGGCCCUUCAUGCUGCCCAGCUCGGG [hsa-mir-486-1] | y |
| GAUGUUUCUGCCAGUUUAGCGUC [hsa-mir-505] | n |
| CACGCAUUUGCUUUACUUGCAAUGAUUAUA [hsa-mir-300] | n |
| ACUUUCACCAGAGAGCAGAAAGU [hsa-mir-371b] | y |
| AUCAUCUCUCCCUUGGAU [hsa-mir-3683] | y |
| AGUUUCUGGAAGUUCUGACAUUCCAGAAACU [hsa-mir-3199-1] | y |
| GUGUACCUCAUGUGUGUACAC [hsa-mir-5692a-2_5692a-1] | n |
| GGCCAUCUGCUAUUCGUCCACCAACCUGACUUGAUCC [hsa-mir-7111] | y |
| GGCUGUGGCCUAGGGCAAGCCACAAAGCC [hsa-mir-4642] | y |
